- System: T1, human serum albumin (human, UniProt P02768 25-609)
- T1 construct: Bought protein; also called HSA
- Measurement Description: SPR, pH 7.4, immobilized HSA density ~6700 RU
- Description: The purified multivalent albumin binding constructs were also tested in SPR on different densities of HSA (100 RU until 6700 RU) to detect avidity.
Recorded Metric: koff (s⁻¹)
Write it as a number; the unit s⁻¹ goes unstated.

• IRR00164 (VHH, also called CNB-9GS-CNB-9GS-CNB-9GS-ALB23002-A; CNB-CNB-CNB-Alb223) VHH: EVQLVESGGGVVQPGGSLRLSCAASGFTFRSFGMSWVRQAPGKGPEWVSSISGSGSDTLYADSVKGRFTISRDNSKNTLYLQMNSLRPEDTALYYCTIGGSLSRSSQGTLVTVSS = 0.0012
• TPP-66093 (VHH, also called ALBX00002-35GS-ALB23002-A; ALBX00002-35GS-Alb223) EVQLVESGGGVVQPGGSLRLSCAASGLTFSSYAMGWFRQAPGKERERVVSISRGGGYTYYADSVKGRFTISRDNSKNTVYLQMNSLRPEDTALYYCAAARYWATGSEYEFDYWGQGTLVTVSSGGGGSGGGGSGGGGSGGGGSGGGGSGGGGSGGGGSEVQLVESGGGVVQPGGSLRLSCAASGFTFRSFGMSWVRQAPGKGPEWVSSISGSGSDTLYADSVKGRFTISRDNSKNTLYLQMNSLRPEDTALYYCTIGGSLSRSSQGTLVTVSSA = 5.2e-05

Now for another entry.
Asked: Value lookup for koff; key = TPP-66097 (other, also called ABD-35GS-ALB23002-A; ABD-35GS-Alb223) LKEAKEKAIEELKKAGITSDYYFDLINKAKTVEGVNALKDEILKAGGGGSGGGGSGGGGSGGGGSGGGGSGGGGSGGGGSEVQLVESGGGVVQPGGSLRLSCAASGFTFRSFGMSWVRQAPGKGPEWVSSISGSGSDTLYADSVKGRFTISRDNSKNTLYLQMNSLRPEDTALYYCTIGGSLSRSSQGTLVTVSSA
Given back: 6e-05
